test: Heme binding to the constructs; settings: two-heme variants, weaker site; read-out: heme binding affinities
pKd: −log10 of the molar value.
Measurement Type: pKd

Query: pKd; subject: CGGGEIWKQFEEALKKLFAFFFILPFIIMAIAMVHLLFLFGEGL [Construct 15, AP6 with histidines at positions 10 and 21 mutated to phenylalanine]
5.35

Query: pKd; subject: CGGGEIWKQFEEALKKLFAFHFILPFIIMAIAMVFLLFLFGEGL [Construct 14, AP6 with histidines at positions 10 and 35 mutated to phenylalanine]
5.52 to 6.00

Query: pKd; subject: CGGGEIWKQHEEALKKLFAFFFILPFIIMAIAMVFLLFLFGEGL [Construct 13]
5.40 to 6.00

* * *

test: Heme binding to the constructs; settings: two-heme variants, tighter site; read-out: heme binding affinities
pKd: −log10 of the molar value.
Documented pKd across a set of sequences

Worked cases, pKd given:
* CGGGEIWKQHEEALKKLFAFFFILPFIIMAIAMVFLLFLFGEGL [Construct 13] | 6.70 to 7.30
* CGGGEIWKQFEEALKKLFAFHFILPFIIMAIAMVFLLFLFGEGL [Construct 14, AP6 with histidines at positions 10 and 35 mutated to phenylalanine] | 6.30 to 6.70

// moving on: another record for pKd
Query: pKd; subject: CGGGEIWKQFEEALKKLFAFFFILPFIIMAIAMVHLLFLFGEGL [Construct 15, AP6 with histidines at positions 10 and 21 mutated to phenylalanine]
7.00
